test system: Plasmodium falciparum; assay: Antimalarial activity against Plasmodium falciparum; type: functional, organism-based; conditions: Plasmodium falciparum
recorded_endpoint: pIC50
Units for pIC50: none; it is -log10 of a concentration expressed in mol/L.

# count of solved cases: 4
Cl.OC(CCc1ccc(Cl)cc1)Cn1ccnc1 (stereo not given)    4.15
COc1ccc(CCC(O)Cn2ccnc2)cc1.Cl (stereo not given)    4.42
Oc1ccc(SC[C@@H]2CO[C@@](CCc3ccc(Cl)cc3)(Cn3ccnc3)O2)cc1    7.22
Cl.Cl.Nc1cccc(SC[C@@H]2CO[C@](CCc3ccc(Cl)cc3)(Cn3ccnc3)O2)c1    6.52

The molecule "Cl.Nc1cccc(SC[C@H]2CO[C@](CCc3ccc(Cl)cc3)(Cn3ccnc3)O2)c1" showed pIC50 equal to 5.60

The molecule "COc1ccc(OC[C@@H]2CO[C@](CCc3ccc(Cl)cc3)(Cn3ccnc3)O2)cc1.Cl" showed pIC50 equal to 6.10

The molecule "Cl.Clc1ccc(CC[C@@]2(Cn3ccnc3)OC[C@@H](CSc3ccc(Cl)cc3)O2)cc1" showed pIC50 equal to 5.60
